Tested on: UACC-257 melanoma
Method Summary: NCI-60 one-dose screen, 48 h
Run Conditions: 10 µM unless noted
Compounds without any hit were thinned out: in the full panel of roughly 83,000, 20% have a hit. Activity calls are given as the source filed them. The calls were made as follows: active = growth percent below 10; inactive = the rest.
Outcome codes: true (active), false (inactive)

| Substance Smiles | Category |
| --- | --- |
| O=C(CSc1nnc(-c2cccs2)n1-c1ccccc1)Nc1ccccc1F | false |
| N#CC1=C2NCCCNc3oc(nc3C#N)Cc3ccccc3CC(=N1)O2 | false |
| Cc1cc2nc3c4cc(C#N)ccc4n(CCN(C)C)c3nc2cc1C | true |
| CS(=O)(=O)c1ccc(/C(=N/N=C(N)N)c2ccc(F)cc2)cc1 | false |
| O=C(CSc1cc[n+](CCCCO)c2ccccc12)n1ccc2ccccc21 | false |
| CCOC(=O)c1cccc(NC2=C(Cl)C(=O)c3nc(C)ccc3C2=O)c1 | false |

* * *

Item-by-item account of growth
Test system: SK-MEL-5 melanoma
Method Summary: NCI-60 one-dose screen, 48 h (100 = growth as untreated, 0 = no growth, -100 = all killed)
Run Conditions: 10 µM unless noted
Experimental: Growth inhibition of the SK-MEL-5 human tumor cell line is measured as a screen for anti-cancer activity. Cells are grown in 96 well plates and exposed to the test compound for 48 hours. Compounds are tested at a single concentration, which is 10^-5 M for most compounds. The reported endpoint is percent growth (GI% or GIPRCNT), where numbers from 0 - 100% represent growth inhibition, and numbers from -100% - 0 represent cell death. For example, a value of 40 represents 60% growth inhibition. […]
The panel holds about 83,000 compounds, 20% with a hit somewhere; the sample as a whole holds those more often.

| Substance Smiles | Tested On | Readout Units | growth |
| --- | --- | --- | --- |
| CC(C)[C@H]1c2[nH]c3ccccc3c2C[C@H]2C(=O)N(CCCCCCC(=O)NO)CC(=O)N12 | SK-MEL-5 melanoma | % | 75 |
| O=S(=O)(NCCCNc1nccc(-c2[nH]c(-c3ccccc3)nc2-c2ccc(F)c(O)c2)n1)c1ccc(C(F)(F)F)cc1 | SK-MEL-5 melanoma | % | -0.786 |
| Cc1csc(/N=C(N)/N=C(\N)c2cccc(C#N)c2)n1 | SK-MEL-5 melanoma | % | 85.7 |
| O=C(CCCCCCNC(=O)C(O)(O)C(F)(F)F)Nc1ccc(-c2ccccc2)cc1 | SK-MEL-5 melanoma | % | -41.5 |
| O=C(Nc1cccc(Cl)c1)Nc1nc2cc([N+](=O)[O-])ccc2o1 | SK-MEL-5 melanoma | % | 15.7 |
| O=C(/C=C/c1cccc(C(F)(F)F)c1)Nc1cccc(C(F)(F)F)c1 | SK-MEL-5 melanoma | % | 89.1 |
| CCOC(=O)c1cnc2c(-c3ccc(Cl)c(Cl)c3)cnn2c1 | SK-MEL-5 melanoma | % | 79.8 |
| NC(=O)n1c(=O)n(-c2cccc(C(F)(F)F)c2)c(=O)c2cc(-c3ccc(F)cc3F)ccc21 | SK-MEL-5 melanoma | % | -59.7 |
| C=C(C)[C@@H]1CC[C@]2(C(=O)O)CC[C@]3(C)[C@H](CC[C@@H]4[C@@]5(C)C/C(=C/c6ccccn6)C(=O)C(C)(C)[C@@H]5CC[C@]43C)[C@@H]12 | SK-MEL-5 melanoma | % | 31.8 |

These measurements were taken from PubChem BioAssay (NCI).
